Where do the numbers come from? From the Immune Epitope Database (IEDB).

target: HLA-B*27:03; test: IEDB peptide-MHC binding, purified MHC/competitive/fluorescence; filed as Kd, often an IC50 or EC50 that approximates it; bounds were set here for any values at or beyond the usual limits of such assays; details: source organism: Homo sapiens
pKd: −log10 of the molar value.
experimental endpoint: pKd

INSERT INTO assay_data (sequence_text, result) VALUES
  ('VTENKKIQY', '≤ 4.70'),
  ('FQWHEAMFL', '≤ 4.70');

###

biological target: HLA-A*68:02; assay: IEDB peptide-MHC binding, purified MHC/direct/fluorescence; filed as Kd, often an IC50 or EC50 that approximates it; bounds were set here for any values at or beyond the usual limits of such assays; details: source organism: Salmonella enterica subsp. enterica serovar Virchow
experimental endpoint: Kd

INSERT INTO results (sequence_text, experimental_endpoint, result) VALUES
  ('CTWPEASRY', 'Kd', '≥ 20 µM');

###

biological target: HLA-A*30:01; assay: IEDB peptide-MHC binding, purified MHC/competitive/radioactivity; filed as Kd, often an IC50 or EC50 that approximates it; bounds were set here for any values at or beyond the usual limits of such assays; settings: source organism: Mammarenavirus guanaritoense
experimental endpoint: Kd (µM)

INSERT INTO measurements (sequence_text, number) VALUES
  ('CTLEGVWAPF', 6.96);

###

target: HLA-B*18:01; assay: IEDB peptide-MHC binding, purified MHC/competitive/fluorescence; filed as Kd, often an IC50 or EC50 that approximates it; bounds were set here for any values at or beyond the usual limits of such assays; details: source organism: Homo sapiens
experimental endpoint: Kd

INSERT INTO results (sequence_text, result) VALUES
  ('VTENKKIQY', '≥ 20 µM');

###

Parameter: pKd. Scope: all listed entries.
biological target: HLA-B*54:01; assay: IEDB peptide-MHC binding, purified MHC/competitive/radioactivity; filed as Kd, often an IC50 or EC50 that approximates it; bounds were set here for any values at or beyond the usual limits of such assays; details: source organism: Vaccinia virus WR
pKd: −log10 of the molar value.
experimental endpoint: pKd

INSERT INTO assay_data (sequence_text, experimental_endpoint, comparison_operator, number) VALUES
  ('VPDIKLDAVL', 'pKd', '=', 5.79),
  ('ILMIFISSFL', 'pKd', '=', 5.82),
  ('DPRLVAEHRF', 'pKd', '≤', 4.16),
  ('DPTFQLLNMI', 'pKd', '≤', 4.57),
  ('DPDHYKDYAF', 'pKd', '=', 4.76),
  ('LPSLIKTILA', 'pKd', '=', 8.81),
  ('KPEVRIPVDL', 'pKd', '=', 4.84);

###

target: HLA-A*02:03; assay: IEDB peptide-MHC binding, purified MHC/competitive/fluorescence; filed as Kd, often an IC50 or EC50 that approximates it; bounds were set here for any values at or beyond the usual limits of such assays; settings: source organism: Salmonella enterica subsp. enterica serovar Typhi
experimental endpoint: Kd

INSERT INTO measurements (sequence_text, experimental_endpoint, result) VALUES
  ('KTVRYWHRF', 'Kd', '≥ 20 µM');

###

target: HLA-B*58:01; test: IEDB peptide-MHC binding, purified MHC/direct/fluorescence; filed as Kd, often an IC50 or EC50 that approximates it; bounds were set here for any values at or beyond the usual limits of such assays; conditions: source organism: Mammarenavirus lassaense
pKd: −log10 of the molar value.
experimental endpoint: pKd

INSERT INTO assay_data (sequence_text, tested_target, number) VALUES
  ('KSSLNISGY', 'HLA-B*58:01', 7.42);

###

target: HLA-A*02:01; assay: IEDB peptide-MHC binding, purified MHC/competitive/radioactivity; bounds were set here for any values at or beyond the usual limits of such assays; settings: source organism: Rhinovirus A
pIC50: −log10 of the molar value.
experimental endpoint: pIC50

INSERT INTO assay_data (sequence_text, experimental_endpoint, number) VALUES
  ('ALYIPPYEL', 'pIC50', 6.23);

###

target: HLA-A*31:01; test: IEDB peptide-MHC binding, purified MHC/competitive/radioactivity; filed as Kd, often an IC50 or EC50 that approximates it; bounds were set here for any values at or beyond the usual limits of such assays; details: source organism: Dengue virus 1 Brazil/97-11/1997
experimental endpoint: Kd

INSERT INTO assay_data (sequence_text, experimental_endpoint, result) VALUES
  ('LLNRFTMAHR', 'Kd', '≥ 48.5 µM'),
  ('NMTSRMLLNR', 'Kd', '12 µM'),
  ('QMWQLMYFHR', 'Kd', '≥ 39.9 µM'),
  ('KNGAIKVLR', 'Kd', '≥ 51 µM');

###

Parameter: Kd. Scope: all listed entries.
molecular target: HLA-A*03:01; assay: IEDB peptide-MHC binding, purified MHC/direct/fluorescence; filed as Kd, often an IC50 or EC50 that approximates it; bounds were set here for any values at or beyond the usual limits of such assays; settings: source organism: Limestone Canyon virus
experimental endpoint: Kd

INSERT INTO assay_data (sequence_text, experimental_endpoint, result) VALUES
  ('ATKDSFQSF', 'Kd', '≥ 20 µM'),
  ('YTFTSLFSL', 'Kd', '≥ 20 µM');

###

molecular target: HLA-A*31:01; test: IEDB peptide-MHC binding, purified MHC/competitive/radioactivity; filed as Kd, often an IC50 or EC50 that approximates it; bounds were set here for any values at or beyond the usual limits of such assays; conditions: source organism: Lassa virus Josiah
Parameter: Kd. Scope: all listed entries.
experimental endpoint: Kd (nM)

INSERT INTO measurements (sequence_text, comparison_operator, number) VALUES
  ('MLRLFDFNK', '=', 129),
  ('GSYIALDSGR', '=', 78.3),
  ('HIVGKSCPK', '≥', 45000);

###

Parameter: Kd. Scope: all listed entries.
biological target: HLA-A*32:01; test: IEDB peptide-MHC binding, purified MHC/competitive/radioactivity; filed as Kd, often an IC50 or EC50 that approximates it; bounds were set here for any values at or beyond the usual limits of such assays; conditions: source organism: Vaccinia virus Copenhagen
experimental endpoint: Kd (nM)

INSERT INTO measurements (sequence_text, tested_target, experimental_endpoint, number) VALUES
  ('KILLVAVSI', 'HLA-A*32:01', 'Kd', 1.54),
  ('LQNSVVLQF', 'HLA-A*32:01', 'Kd', 7.33);

###

molecular target: HLA-A*02:01; test: IEDB peptide-MHC binding, purified MHC/direct/fluorescence; filed as Kd, often an IC50 or EC50 that approximates it; bounds were set here for any values at or beyond the usual limits of such assays; details: source organism: Encephalitozoon cuniculi GB-M1
pKd: −log10 of the molar value.
experimental endpoint: pKd

INSERT INTO measurements (sequence_text, result) VALUES
  ('FSFFMNENF', '≤ 4.70');

###

biological target: HLA-A*32:01; experiment: IEDB peptide-MHC binding, purified MHC/competitive/radioactivity; filed as Kd, often an IC50 or EC50 that approximates it; bounds were set here for any values at or beyond the usual limits of such assays; conditions: source organism: Variola virus
pKd: −log10 of the molar value.
experimental endpoint: pKd

INSERT INTO measurements (sequence_text, experimental_endpoint, number) VALUES
  ('LLLSINSSF', 'pKd', 5.68);

###

molecular target: HLA-B*46:01; experiment: IEDB peptide-MHC binding, purified MHC/direct/fluorescence; filed as Kd, often an IC50 or EC50 that approximates it; bounds were set here for any values at or beyond the usual limits of such assays; settings: source organism: Burkholderia mallei
experimental endpoint: Kd

INSERT INTO measurements (sequence_text, result) VALUES
  ('EARGKEKLL', '≥ 20 µM');

###

molecular target: HLA-B*44:02; assay: IEDB peptide-MHC binding, purified MHC/competitive/radioactivity; filed as Kd, often an IC50 or EC50 that approximates it; bounds were set here for any values at or beyond the usual limits of such assays; settings: source organism: Mammarenavirus lassaense
pKd: −log10 of the molar value.
experimental endpoint: pKd

INSERT INTO results (sequence_text, number) VALUES
  ('KENLYIKSI', 6.63);

###

biological target: HLA-A*01:01; assay: IEDB peptide-MHC binding, purified MHC/direct/fluorescence; filed as Kd, often an IC50 or EC50 that approximates it; bounds were set here for any values at or beyond the usual limits of such assays; conditions: source organism: Camelpox virus M-96
Parameter: Kd. Scope: all listed entries.
experimental endpoint: Kd (µM)

INSERT INTO assay_data (sequence_text, comparison_operator, number) VALUES
  ('NSNINVINY', '=', 5.44),
  ('KELENEYYF', '≥', 20);

###

molecular target: HLA-B*53:01; assay: IEDB peptide-MHC binding, purified MHC/competitive/radioactivity; filed as Kd, often an IC50 or EC50 that approximates it; bounds were set here for any values at or beyond the usual limits of such assays; details: source organism: SARS coronavirus Tor2
Parameter: Kd. Scope: all listed entries.
experimental endpoint: Kd (µM)

INSERT INTO measurements (sequence_text, tested_target, units_text, number) VALUES
  ('SPLFLIVAAL', 'HLA-B*53:01', 'µM', 1.04),
  ('APNAKEEIL', 'HLA-B*53:01', 'µM', 18.5);
